FYI, the data here is from ChEMBL document CHEMBL1201862.

# Tested on: SK-MEL-28
# test: NCI tumour cell line growth inhibition, 48 h
Active and inactive are the calls of the source. Cut-off read from the data, not from the text of the source: active = GI50 up to about 1.1 µM and inactive = higher.
Outcome codes: active, inactive

{"compound": "O=c1[nH]cnc2cccc(Cl)c12", "group": "inactive"}
{"compound": "CN(C)c1ccc(/C=C2\\N=C(N/N=C/c3ccc(N(C)C)cc3)NC2=O)cc1", "group": "inactive"}
{"compound": "O=C1C2=C(CC3=C(C2)CS(=O)(=O)C3)C(=O)C2=C1CC1=C(C2)CS(=O)(=O)C1", "group": "inactive"}
{"compound": "CC(C)C[C@H](NC(=O)[C@H](Cc1ccc(F)cc1)NC(=O)c1ccccn1)B(O)O", "group": "active"}
{"compound": "N=c1sc(N2CCOCC2)nn1CC(=O)c1ccccc1", "group": "inactive"}
{"compound": "COC(=O)/C(C#N)=C1\\CCc2ccccc21", "group": "inactive"}
{"compound": "Cc1cc(C(C)(C)C)cc(CNC2CCCCC2)c1O", "group": "inactive"}
{"compound": "CCCCCCCCCCCCOc1ccc(/C=C/C2=[N+](CCCl)CCO2)cc1", "group": "inactive"}
{"compound": "COC1(OC)CC2C(=O)N(Cc3ccccc3)C1C(S(=O)(=O)c1ccccc1)C2C(C)S(=O)(=O)c1ccccc1 (stereo unspecified)", "group": "inactive"}
{"compound": "S=c1sscc1N1CCSc2ssc(=S)c21", "group": "inactive"}
{"compound": "COc1ccc(N2CN(C)CSC2=S)cc1", "group": "inactive"}
